Target: Lp-PLA2 enzyme in human plasma (Homo sapiens, UniProt Q13093)
Construct: from tissue; host or cells: mixed (pooled) human plasma
Sequence (Q13093 22-441): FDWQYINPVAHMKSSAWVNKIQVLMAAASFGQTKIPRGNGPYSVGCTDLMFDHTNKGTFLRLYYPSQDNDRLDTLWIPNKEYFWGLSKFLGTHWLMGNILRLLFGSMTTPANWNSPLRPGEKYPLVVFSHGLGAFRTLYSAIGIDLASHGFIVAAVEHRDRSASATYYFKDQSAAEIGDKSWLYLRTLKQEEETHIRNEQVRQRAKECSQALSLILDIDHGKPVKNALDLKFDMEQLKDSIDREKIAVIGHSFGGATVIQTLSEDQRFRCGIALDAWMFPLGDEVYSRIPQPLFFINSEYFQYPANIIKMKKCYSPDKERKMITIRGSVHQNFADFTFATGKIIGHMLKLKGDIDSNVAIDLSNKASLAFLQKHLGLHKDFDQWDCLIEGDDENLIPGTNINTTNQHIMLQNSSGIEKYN
Assay: Human plasma Lp-PLA2 assay (Thio-PAF assay)
Format: biochemical
Conditions: mixed human plasma; 2-thio-PAF substrate, CPM; 30-min pre-incubation; fluorescence ex 380/em 485; read-out: Thio-PAF (pIC50) (converted)
Description: (2) Human Plasma Lp-PLA2 Assay (Also Known as Thio-PAF Assay) The human plasma assay was conducted using the […] analog of PAF (phosphatidylcholine). After hydrolysis, it would generate phospholipids containing free sulfhydryl groups, which would be subjected to Michael addition with CPM to generate fluorescence-enhancing maleimide. Continuous quantitative analysis of thiol could be conducted by detecting the fluorescence intensity. […]
ASSAY METRIC: IC50 (nM)
Form entry: value (nM) — number only.

Guide cases for IC50, answers given:
COMPOUND	ASSAY SYSTEM	IC50 / nM
Cc1cc(Oc2c(F)cc(COc3cc4n(c(=O)n3)CC3CCCN4C3)cc2F)ccc1Cl (stereo not shown) [Compound 11]	Lp-PLA2 enzyme in human plasma (Homo sapiens, UniProt Q13093)	7.94
Cc1ccc(Oc2c(F)cc(COc3cc4n(c(=O)n3)CC3CCCN4C3)cc2F)cn1 (stereo not shown) [Compound 7]	Lp-PLA2 enzyme in human plasma (Homo sapiens, UniProt Q13093)	7.94
O=c1nc(OCc2cc(F)cc(F)c2)cc2n1CC1CCCN2C1 (stereo not shown) [Compound 4]	Lp-PLA2 enzyme in human plasma (Homo sapiens, UniProt Q13093)	39.8

Exam item: Answer with reported IC50 of O=c1nc(OCc2cc(F)cc(F)c2)cc2n1C[C@@H]1CN2CCO1 [Compound 33]
Marked response: 79.4
